System: SN12C renal
procedure_text: NCI tumour cell line growth inhibition, 48 h
Reported TGI values are given for each entry in this list.
parameter: TGI (µM)

compound | parameter | comparison_operator | experimental_value
Cc1nc(C(=O)O)c2ccccc2n1 | TGI | > | 100
CC1=C(O)C2=C(C(=O)C1=O)[C@@H](C)CC[C@@H]2[C@@H](C)C/C=C/C(C)(C)O | TGI | > | 100
O=C(CC1(O)C(=O)N(Cc2ccccc2)c2ccccc21)c1ccc(C(=O)NCC2CCC3(CC2)OOC2(CCCCC2)OO3)cc1 (centres undefined) | TGI | = | 3.76
O[C@@]12Cc3c([nH]c4ccccc34)[C@@H]3Oc4cccc5c4[C@@]31CCN(CC1CC1)[C@@H]2C5 | TGI | = | 37
O=C(/C=C/c1ccccc1)Oc1ccc(C(=O)/C=C/c2ccc(Cl)cc2)cc1 | TGI | > | 100
COc1ccc(-c2nc(/C=C3\SC(=NCc4ccccc4)NC3=O)c3ccccn23)cc1 | TGI | = | 4.63
COc1ccc(/C=C(\C#N)n2nnc3c(F)cccc32)cc1 | TGI | > | 100
c1ccc2cc(-c3n(Cc4ccc5ccccc5n4)c4ccccc4[n+]3Cc3ccc4ccccc4n3)ccc2c1 | TGI | = | 1.11
O=C(CCCCCCN1CC(=O)N2[C@@H](c3ccc(Cl)c(Cl)c3)c3[nH]c4ccccc4c3C[C@H]2C1=O)NO | TGI | = | 14.5

----------
Tested on: U251 CNS
procedure_text: NCI tumour cell line growth inhibition, 48 h
Decide using TGI: a value greater than or equal to 4 µM is T, a smaller one is F.

molecule | category_label
COC(=O)CCCCC(=O)c1c(C)[nH]c(/C=C2\N=C(c3ccc[nH]3)C=C2OC)c1C | F
COc1ccc(N(CC(=O)NCCC[Te]c2ccccc2)C(=O)CNC(=O)OC(C)(C)C)cc1 | T
COC(=O)C(CCSC)NC(=O)CNC(=O)CSc1nnc(COc2ccc(Cl)cc2)n1-c1ccccc1 (centres undefined) | T
C/C=C/C#CC#C/C=C/C=C/C(O)CCO (centres undefined) | T
Oc1cccc2ccc(N/N=C/c3cc(CN4CCOCC4)c(O)c4ncccc34)nc12 | F
CC1=NN(c2nc(N)nc(/C(C#N)=C\c3csc([N+](=O)[O-])c3)n2)C(C)(C)C1 | T
O=c1[nH]nc(Cc2ccccc2)n1C1CCCC1 | T
COC(=O)[C@H]1CCCN1C(=O)[C@H]1CCCN1C(=O)[C@@H](Cc1c[nH]c2ccccc12)NC(=S)Nc1cc(C(F)(F)F)cc(C(F)(F)F)c1 | F
CC(C)(C)C1=CC(C)(n2[nH]c(=O)n(-c3ccccc3)c2=O)C=C(C(C)(C)C)C1=O | T
CC1CN=C(N(Cc2ccccc2)C(=O)Nc2ccc(Cl)c(Cl)c2)S1 (centres undefined) | T
COc1c(=O)cc2cc[nH]c3ccn(C)c1c23 | T
O=C(/C=C/c1ccccc1)Oc1ccc(C(=O)/C=C/c2ccc(Cl)cc2)cc1 | T
COc1cc(C(C)O)c[n+](Cc2ccccc2)c1 (centres undefined) | T
Cc1ccc(S(=O)(=O)N/N=C(/CC(=O)c2c(C)n([O-])c3ccccc3[n+]2=O)C(=O)Nc2ccccc2C)cc1 | T
NNC(=O)c1c(-c2cccnc2)cnc2ccccc12 | T
CC1(c2nc3ccccc3[nH]2)CCC(C(=O)O)C(C)(C)O1 (centres undefined) | T
CCCCCO/N=C\c1c2c(O)c3c(O)c(C)c4c(c3c1O)C(=O)C(C)(O/C=C\C(OC)C(C)C(OC(C)=O)C(C)C(O)C(C)C(O)C(C)/C=C\C=C(\C)C(=O)N2)O4 (centres undefined) | F
O=[N+]([O-])c1ccc(N2CCOCC2)c2c1no[n+]2[O-] | F

Entry source: PubChem BioAssay (NCI)
